Listed below: % bound values for each entry.
Target: T1, rat collagen, acid soluble, type I, rat tail (Upstate 08-115) (rat, UniProt P02454 152-1207; P02466 86-1125)
T1 construct: tissue extract, gelled and dried in wells; also called dried rat collagen
T1 sequence (P02454 152-1207, chain 1 of 2): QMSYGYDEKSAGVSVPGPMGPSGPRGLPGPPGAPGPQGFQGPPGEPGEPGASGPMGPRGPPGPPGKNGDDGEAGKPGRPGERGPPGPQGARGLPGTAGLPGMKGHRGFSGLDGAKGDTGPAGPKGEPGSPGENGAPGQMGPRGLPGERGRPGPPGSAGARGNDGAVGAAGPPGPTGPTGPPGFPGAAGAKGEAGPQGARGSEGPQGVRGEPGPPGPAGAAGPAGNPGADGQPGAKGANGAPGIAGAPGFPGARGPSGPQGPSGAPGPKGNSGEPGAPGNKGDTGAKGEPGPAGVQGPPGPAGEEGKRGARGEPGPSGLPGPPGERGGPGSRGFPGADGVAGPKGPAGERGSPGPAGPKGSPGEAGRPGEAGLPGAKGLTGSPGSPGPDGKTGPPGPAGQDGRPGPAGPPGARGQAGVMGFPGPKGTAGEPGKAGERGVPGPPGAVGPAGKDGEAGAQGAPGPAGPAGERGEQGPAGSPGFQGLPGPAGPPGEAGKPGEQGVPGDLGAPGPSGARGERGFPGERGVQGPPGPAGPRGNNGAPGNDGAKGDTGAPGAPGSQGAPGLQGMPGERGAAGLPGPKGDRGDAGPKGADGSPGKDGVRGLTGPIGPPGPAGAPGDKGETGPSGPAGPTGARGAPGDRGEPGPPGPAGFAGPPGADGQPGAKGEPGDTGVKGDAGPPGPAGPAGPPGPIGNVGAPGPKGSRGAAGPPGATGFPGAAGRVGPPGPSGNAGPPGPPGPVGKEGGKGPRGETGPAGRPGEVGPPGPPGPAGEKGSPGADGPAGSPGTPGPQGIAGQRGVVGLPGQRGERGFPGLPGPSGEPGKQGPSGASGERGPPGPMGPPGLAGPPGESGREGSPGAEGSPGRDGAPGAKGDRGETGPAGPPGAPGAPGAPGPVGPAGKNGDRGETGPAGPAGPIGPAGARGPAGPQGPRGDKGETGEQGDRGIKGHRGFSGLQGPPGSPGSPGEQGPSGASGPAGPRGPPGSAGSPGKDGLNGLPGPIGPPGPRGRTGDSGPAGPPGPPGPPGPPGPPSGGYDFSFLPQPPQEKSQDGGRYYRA
T1 sequence (P02466 86-1125, chain 2 of 2): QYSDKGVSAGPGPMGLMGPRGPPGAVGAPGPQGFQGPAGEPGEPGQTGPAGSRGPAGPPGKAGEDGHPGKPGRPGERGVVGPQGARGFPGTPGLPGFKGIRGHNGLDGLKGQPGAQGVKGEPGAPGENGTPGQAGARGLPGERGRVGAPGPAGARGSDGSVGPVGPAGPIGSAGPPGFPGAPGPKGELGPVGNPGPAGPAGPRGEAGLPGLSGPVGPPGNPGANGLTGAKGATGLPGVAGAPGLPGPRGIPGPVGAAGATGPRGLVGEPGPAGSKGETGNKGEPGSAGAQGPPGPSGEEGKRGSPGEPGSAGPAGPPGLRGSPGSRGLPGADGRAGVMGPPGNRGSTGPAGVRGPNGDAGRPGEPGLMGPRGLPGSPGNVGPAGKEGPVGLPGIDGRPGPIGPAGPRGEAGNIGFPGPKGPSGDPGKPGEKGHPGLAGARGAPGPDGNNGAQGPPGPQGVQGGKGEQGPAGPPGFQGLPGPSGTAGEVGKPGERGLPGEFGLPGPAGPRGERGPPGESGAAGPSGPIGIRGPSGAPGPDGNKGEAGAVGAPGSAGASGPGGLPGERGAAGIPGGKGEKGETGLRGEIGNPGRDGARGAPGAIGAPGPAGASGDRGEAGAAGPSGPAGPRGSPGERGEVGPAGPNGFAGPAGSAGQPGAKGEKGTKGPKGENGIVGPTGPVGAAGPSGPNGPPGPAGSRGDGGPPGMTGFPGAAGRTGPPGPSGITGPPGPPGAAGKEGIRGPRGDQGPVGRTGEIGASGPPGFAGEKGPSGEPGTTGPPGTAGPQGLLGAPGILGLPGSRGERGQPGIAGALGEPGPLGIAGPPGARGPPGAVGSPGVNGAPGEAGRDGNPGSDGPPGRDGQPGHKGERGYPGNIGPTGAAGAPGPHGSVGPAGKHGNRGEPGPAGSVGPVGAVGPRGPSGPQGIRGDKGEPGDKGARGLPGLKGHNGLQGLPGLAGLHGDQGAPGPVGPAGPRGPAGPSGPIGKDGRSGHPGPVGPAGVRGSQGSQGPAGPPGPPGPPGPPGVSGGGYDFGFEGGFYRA
Assay: dried collagen assay
Bridge positions count the residues as written; N and C are the ends. Square brackets hold non-standard residues; d marks the D form. Primed or numbered codes have the meaning given here. Side chains are listed from the residue outwards. Ends that are not written are not given here. Gd^D = GdDOTAGA (gadolinium DOTAGA chelate); Bip = N[C@@H](Cc1ccc(-c2ccccc2)cc1)C(=O)O; Gd^T(3) = GdDTPA attached via thiourea; Phe(4-F) = N[C@@H](Cc1ccc(F)cc1)C(=O)O; Cha = N[C@@H](CC1CCCCC1)C(=O)O; Gd^T = not defined here; Gd^T″ = GdDTPA-thiourea; Dap = NC[C@H](N)C(=O)O
Measurement name: % bound (%)

binder="{Gd^D}-K(Gd^D)K(Gd^D)YWHCYTYFPHHYCVYG (disulfide 6-15 (inferred)) [Compound ID 1018]" number=55
binder="{Gd^T″}-GK([Gly-Gd^T″])WHCYTYFPHHYCLYGK(Gd^T″) (disulfide 5-14 (inferred)) [Compound ID 996]" number=67
binder="{Gd^T(3)}-GQWHCTT[Cha]FPHH[dY]CLYG (disulfide 5-14; not fully specified (C-terminus)) [Compound ID 918]" number=0
binder="{Gd^T(3)}-GK([Gly-Gd^T(3)])WHCTTYFPHH[Bip]CLYG (disulfide 5-14) [Compound ID 951]" number=32
binder="{Gd^T″}-GQWHCTTRFPHH[Bip]CLYG (disulfide 5-14) [Compound ID 873]" number=33
binder="{Gd^T″}-GQWHCTT[Phe(4-F)]FPHHYCLYG (disulfide 5-14 (inferred)) [Compound ID 929]" number=34
binder="{Gd^T″}-GQWHCTTDFPH[Dap]YCLYG (disulfide 5-14) [Compound ID 886]" number=13
binder="{Gd^T″}-GQWHCYTYFPHHYCLYGK(Gd^T″) (disulfide 5-14 (inferred); not fully specified (C-terminus)) [Compound ID 994]" number=84
binder="{Gd^T″}-GK([Gly-Gd^T″])WHCTTYFPHWYCLYG (disulfide 5-14 (inferred)) [Compound ID 948]" number=17
binder="{Gd^T″}-GK([Gly-Gd^T″])WHCYTK(Gd^T″)FPHHYCVY[Bip] (disulfide 5-14) [Compound ID 1004]" number=90
binder="{Gd^T}-GQWHCTTYFPHHYCLYG (disulfide 5-14 (inferred); not fully specified (C-terminus); reading uncertain) [Compound ID 861]" number=79
